Measured composite z-score values are reported for all entries that follow.
# experimental.system: Left-right determination factor 2 (Homo sapiens)
# protocol: LEFTY2 binders on small-molecule microarrays, primary screen, biochemical, small-molecule microarray, 635 nm fluorescence scan (AID 1110)
# conditions: LEFTY2 binding, higher = more signal
metric: composite z-score

[[record]]
compound = "COCCOC(=O)N1C(=O)[C@@]2(c3ccccc31)[C@H](C(=O)NC[C@H](O)c1ccccc1)[C@H]1C(=O)O[C@H](c3ccccc3)[C@H](c3ccccc3)N1[C@@H]2c1ccc(OCCO)cc1"
metric = "composite z-score"
recorded_value = 0.965

[[record]]
compound = "CC(C)(C)OC(=O)CC[C@]1(C(=O)N2CCCCC2)N=C(c2ccc(OCCCO)cc2)O[C@H]1c1ccccc1N=[N+]=[N-]"
metric = "composite z-score"
recorded_value = 0.376

[[record]]
compound = "COCC(=C=CC[C@@H](O)c1ccc(CO)o1)CCO"
metric = "composite z-score"
recorded_value = 0.744

[[record]]
compound = "CN(C)CCCCNC(=O)[C@H]1C[C@H]2C(=O)N[C@@H](Cc3ccccc3)C(=O)N2[C@H]1c1ccc(O)cc1"
metric = "composite z-score"
recorded_value = 1.17

[[record]]
compound = "COCCOC(=O)N1C(=O)[C@@]2(c3cc(C#CC4=CCCCC4)ccc31)[C@H](C(=O)NC[C@H](O)c1ccccc1)[C@H]1C(=O)O[C@H](c3ccccc3)[C@H](c3ccccc3)N1[C@@H]2c1ccc(O)cc1"
metric = "composite z-score"
recorded_value = 0.693

[[record]]
compound = "N#Cc1ccc(NN2C(C(O)c3cccs3)C=CC3C(=O)N(c4ccccc4)C(=O)C32)cc1 (stereo not drawn)"
metric = "composite z-score"
recorded_value = 0.268

[[record]]
compound = "COC(=O)[C@@]1(Cc2ccc(OC)cc2)[C@H]2c3cc(C(=O)N(C)C)n(Cc4c(OC)[nH]cc(C)c4=O)c3C[C@H]2CN1C(=O)c1ccccc1"
metric = "composite z-score"
recorded_value = 0.464

[[record]]
compound = "O=C1OCCC=C[C@H]2OC34C=CCN(c5ccc6ccccc6c5)C(=O)[C@H]3N(CCCCCO)C(=O)[C@@H]4C12 (stereo partly drawn)"
metric = "composite z-score"
recorded_value = -1.05

[[record]]
compound = "O=C(O)[C@@]1(Cc2ccccc2)N=C(c2ccc(OCCCO)cc2)O[C@H]1c1ccccc1"
metric = "composite z-score"
recorded_value = -1.13

[[record]]
compound = "C=CCOC(=O)[C@H]1[C@@H]2C(=O)O[C@@H](c3ccccc3)[C@@H](c3ccccc3)N2[C@@H](c2ccc(OCCOC(=O)[C@@H]3C[C@@H]4C(=O)NCC(=O)N4[C@@H]3c3ccc(O)cc3)cc2)[C@]12C(=O)Nc1ccccc12"
metric = "composite z-score"
recorded_value = 0.733

[[record]]
compound = "CCOc1cc(C(O)C2C=CC3C(=O)N(c4ccccc4)C(=O)C3N2Nc2ccc([N+](=O)[O-])cc2)ccc1O (stereo not drawn)"
metric = "composite z-score"
recorded_value = 0.173

[[record]]
compound = "COCCOC(=O)N1C(=O)[C@@]2(c3cc(C#CCCO)ccc31)[C@H](C(=O)NC[C@H](O)c1ccccc1)[C@H]1C(=O)O[C@H](c3ccccc3)[C@H](c3ccccc3)N1[C@@H]2c1ccc(O)cc1"
metric = "composite z-score"
recorded_value = -0.186

[[record]]
compound = "CC(C)c1ccc(NN2C(C(O)c3cccc(O)c3)C=CC3C(=O)N(c4ccccc4)C(=O)C32)cc1 (stereo not drawn)"
metric = "composite z-score"
recorded_value = -0.136

